biological target: Thyrotropin-releasing hormone receptor (Homo sapiens); assay: qHTS assay to identify small molecule agonists of the thyrotropin-releasing hormone receptor (TRHR) signaling pathway (AID 1346891); settings: TRHR-HEK293 calcium fluorescence, agonist mode; series mostly up to 57.6 µM;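 further: HEK293 cells expressing TRHR with calcium dye readout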
Calls of active or inactive are those of the source. The call rests on the fitted dose curve.

molecule	activation
O=C1c2ccccc2S(=O)(=O)N1CCCCN1CCN(c2ncccn2)CC1	inactive
C[C@@H]1C[C@H]2O[C@@]3(O[C@@H]2C(C)(C)O)[C@H](O)[C@@]2(C)[C@@H]4CC[C@H]5C(C)(C)[C@@H](O[C@@H]6OC[C@@H](O)[C@H](O)[C@H]6O)CC[C@@]56C[C@@]46CC[C@]2(C)[C@@H]13	inactive
O=C1[C@H]2CCCC[C@H]2C(=O)N1CCCCN1CCN(c2nsc3ccccc23)CC1	inactive
Nc1ccc(N)c2c1C(=O)c1ccccc1C2=O	inactive
C[C@@H](c1ncncc1F)C(O)(Cn1cncn1)c1ccc(F)cc1F (stereo not given in full)	inactive

----------
assay: A CellTox Green Cytotoxicity Assay to monitor cytotoxicity in HepG2 cells - 24 hour (AID 1224878); conditions: CellTox Green fluorescence; series mostly up to 76.8 µM; further: nearly all actives have a fitted effect of over 45% in size
Records with an inconclusive call do not appear. The source made the active and inactive calls. Calls come from the whole dose curve; as a rule, active = well fitted activation curve with a large enough effect in the repeat runs; inconclusive = weak or mixed curves; inactive = flat fitted curve, though single readings scatter.
Outcome codes: T for active, F for inactive

> print(dat)
                                    compound  assigned.category
 1                     CC(C)(CO)[N+](=O)[O-]                  F
 2                   CCOC(=O)C(=O)CCc1ccccc1                  F
 3  OC(CN1CCC(Cc2ccc(F)cc2)CC1)c1ccc(Cl)cc1 (stereo unspecified)                  T
 4                           C=C(C)C(=O)OCCO                  F
 5  Cc1oc2c(NC(=O)c3c(Cl)cccc3Cl)cccc2c1C(C)(C)O                  F
 6  CCCCc1nc2cccnc2n1Cc1ccc(-c2ccccc2-c2nnn[nH]2)cc1                  F
 7                        O=C(O)CC(=O)C(=O)O                  F
 8                                     CCCCO                  F
 9                              C/C=C/C=C/CO                  F
10             CC(C)=CCC/C(C)=C/CC/C(C)=C/CO                  F
11  Cn1c(=O)cc(Oc2ccc(F)cc2F)c2cnc(NCC(C)(C)O)nc21                  F
12  C[C@H]1C[C@H]2[C@@H]3CCC4=CC(=O)C=C[C@]4(C)[C@@]3(Cl)[C@@H](O)C[C@]2(C)[C@@]1(O)C(=O)CO                  F
13                              COC(C)(C)CCO                  F
14      C=CC1CC2C=CC1C2 (stereo unspecified)                  F
15                           CCNc1cc(O)ccc1C                  F
16  COc1cc2c(cc1OC)C(C(C(=O)N(CCc1ccc(OC)c(OC)c1OC)CCc1ccc(OC)c(OC)c1OC)c1ccccc1)=NCC2 (stereo unspecified)                  F
17                   Nc1cccc([N+](=O)[O-])c1                  F
18                        CN(C)c1ccc(CCO)cc1                  F
19           Nc1cccc(S(=O)(=O)c2cccc(N)c2)c1                  F
20                     c1cc(CCCc2ccncc2)ccn1                  F
21                      C=CC(=O)OCCOc1ccccc1                  F
22  CCOCC(O)COc1ccc(NC(=O)CC[S+](C)C)cc1 (stereo unspecified)                  F
23  C=C1[C@H]2CC[C@@H]3[C@H]2C(C)(C)CCC[C@]13C                  F
24  CC(=O)c1ccc2c(c1)N(CCCN1CCC(CCO)CC1)c1ccccc1S2                  T
25              CCC(C)O (stereo unspecified)                  F
26                 CCCCCCCCCCCCCCOS(=O)(=O)O                  T
27                          O=C(O)c1ccccc1Cl                  F
28  CCCCC1=NC2(CCCC2)C(=O)N1Cc1ccc(-c2ccccc2-c2nn[nH]n2)cc1                  F
29                      C=CCOC(=O)CCC1CCCCC1                  F
30                         C=C(C)C(=O)OCCOCC                  F
31  O=C(O)c1ccc(-n2nc(-c3ccccc3O)nc2-c2ccccc2O)cc1                  F
32                O=C1C(O)=C(O)C(=O)C(O)=C1O                  F
33     CC(CC=O)c1ccccc1 (stereo unspecified)                  F
34  O=C1c2ccccc2S(=O)(=O)N1CCCCN1CCN(c2ncccn2)CC1                  F
35  CCCCCCCCCCO[C@@H]1O[C@H](CO)[C@@H](O)[C@H](O)[C@H]1O                  F
36  CCCCCCCCO[C@@H]1O[C@H](CO)[C@@H](O)[C@H](O)[C@H]1O                  F
37         O=C(O)C1(C(=O)Nc2ccc(Cl)cc2Cl)CC1                  F
38         Nc1ccc([N+](=O)[O-])c(C(F)(F)F)c1                  F
39  OC[C@H]1O[C@@H](OCCc2ccc(O)cc2)[C@H](O)[C@@H](O)[C@@H]1O                  F
40                  c1ccc(CNCCNCc2ccccc2)cc1                  F
41  COc1ccc(S(=O)(=O)N2C(=O)[C@@](c3ccccc3OC)(N3C[C@H](O)C[C@H]3C(=O)N(C)C)c3cc(Cl)ccc32)c(OC)c1                  F
42          O=[N+]([O-])c1ccc(NCCO)c(OCCO)c1                  F
43           CCOC(=O)NCCOc1ccc(Oc2ccccc2)cc1                  F
44        Clc1ccc2c(c1)CCc1cccnc1C2=C1CCNCC1                  T
45                      Cc1cccc(Nc2ccccc2)c1                  T
46  CO[C@@H]1[C@H](OC(=O)/C=C/C=C/C=C/C=C/C(=O)O)CC[C@]2(CO2)[C@H]1[C@@]1(C)O[C@@H]1CC=C(C)C                  F
